Ref: paper PMC7822176

tested on: hCMEC/D3 cell monolayer; assay: in vitro; settings: final prediction from Papp correlated to reference drugs
EXPERIMENTAL_READOUT: CNS (+/−)

compound="CCCCNC1c2ccccc2-c2ccccc21.Cl [Compound 3m, N-Butyl-9H-fluoren-9-amine hydrochloride]" assay_target="hCMEC/D3 cell monolayer" experimental_readout="CNS (+/−)" measured_result="CNS +"
compound=Cl.c1ccc2c(c1)-c1ccccc1C2NC1CCCCC1 assay_target="hCMEC/D3 cell monolayer" experimental_readout="CNS (+/−)" measured_result="CNS −"
compound=Cl.c1ccc2c(c1)-c1ccccc1C2NC1CCC1 assay_target="hCMEC/D3 cell monolayer" experimental_readout="CNS (+/−)" measured_result="CNS −"
compound="O/N=C/c1cc[n+](COC[n+]2ccc(/C=N/O)cc2)cc1 [Obidoxime, reference compound]" assay_target="hCMEC/D3 cell monolayer" experimental_readout="CNS (+/−)" measured_result="CNS −"
compound="Cc1cc(=O)n(-c2ccccc2)n1C [Antipyrine, reference compound]" assay_target="hCMEC/D3 cell monolayer" experimental_readout="CNS (+/−)" measured_result="CNS +"
compound="CC(C)NCC(O)COc1cccc2ccccc12 (stereo not shown) [Propranolol, reference compound]" assay_target="hCMEC/D3 cell monolayer" experimental_readout="CNS (+/−)" measured_result="CNS +"
compound=CC(C)CNC1c2ccccc2-c2ccccc21.Cl assay_target="hCMEC/D3 cell monolayer" experimental_readout="CNS (+/−)" measured_result="CNS −"
